assay type: in vivo, Balb/c mice; conditions: Balb/c, mouse, plasma, po, 40 mg
Reported Metric: AUC(0-t) (ng·h/mL)
Numbers only, in ng·h/mL.

Qu. Tell me the measured AUC(0-t) of O=c1[nH]cc(F)c(=O)[nH]1 [5-FU, 5-Fluorouracil] , please.
Ans. 1110

* * *

type: in vivo, Balb/c mice; conditions: Balb/c, mouse, plasma, po, 40 mg
Reported Metric: half-life

Qu. Tell me the measured half-life of "O=c1[nH]cc(F)c(=O)[nH]1" , please.
Ans. 1.1 h
